# assaySystem: HLA-A*26:01
# protocolSummary: IEDB peptide-MHC binding, purified MHC/competitive/fluorescence; filed as Kd, often an IC50 or EC50 that approximates it; bounds were set here for any values at or beyond the usual limits of such assays
# runConditions: source organism: Pan troglodytes

chain: FLFDRLTNG
Kd: ≥ 20 µM

---

# assaySystem: HLA-A*02:01
# protocolSummary: IEDB peptide-MHC binding, purified MHC/direct/fluorescence; filed as Kd, often an IC50 or EC50 that approximates it; bounds were set here for any values at or beyond the usual limits of such assays
# runConditions: source organism: Influenza A virus (A/chicken/Hubei/wk/1997(H5N1))
pKd: −log10 of the molar value.
readoutType: pKd

chain: NPALRMKWM
reportedMeasurement: ≤ 4.70

---

# assaySystem: HLA-B*08:01
# protocolSummary: IEDB peptide-MHC binding, purified MHC/direct/fluorescence; filed as Kd, often an IC50 or EC50 that approximates it; bounds were set here for any values at or beyond the usual limits of such assays
# runConditions: source organism: Brucella suis ATCC 23445
pKd: −log10 of the molar value.
readoutType: pKd

chain: FSDVSHWWQ
readoutType: pKd
reportedMeasurement: ≤ 4.70

---

# assaySystem: HLA-A*30:01
# protocolSummary: IEDB peptide-MHC binding, purified MHC/competitive/fluorescence; filed as Kd, often an IC50 or EC50 that approximates it; bounds were set here for any values at or beyond the usual limits of such assays
# runConditions: source organism: Salmonella enterica subsp. enterica serovar Typhi
pKd: −log10 of the molar value.

chain: SVIDHIHYM
pKd: ≤ 4.70

---

# assaySystem: HLA-A*23:01
# protocolSummary: IEDB peptide-MHC binding, purified MHC/competitive/radioactivity; filed as Kd, often an IC50 or EC50 that approximates it; bounds were set here for any values at or beyond the usual limits of such assays
# runConditions: source organism: Dengue virus 3 Singapore/8120/1995

chain: LWMADVPLQW
assaySystem: HLA-A*23:01
unitOfMeasure: nM
Kd: 39.7

---

Here, each record is paired with measured pKd data.
# assaySystem: HLA-A*26:01
# protocolSummary: IEDB peptide-MHC binding, purified MHC/direct/fluorescence; filed as Kd, often an IC50 or EC50 that approximates it; bounds were set here for any values at or beyond the usual limits of such assays
# runConditions: source organism: Yersinia pestis Nepal516
pKd: −log10 of the molar value.

chain: WLWVSSSDM
pKd: ≤ 4.70
--
chain: LSEEIGLDL
pKd: ≤ 4.70

---

# assaySystem: HLA-A*02:03
# protocolSummary: IEDB peptide-MHC binding, purified MHC/competitive/fluorescence; filed as Kd, often an IC50 or EC50 that approximates it; bounds were set here for any values at or beyond the usual limits of such assays
# runConditions: source organism: Campylobacter jejuni subsp. jejuni BH-01-0142
pKd: −log10 of the molar value.
readoutType: pKd

chain: VSIRGSHHK
readoutType: pKd
reportedMeasurement: 5.47

---

# assaySystem: HLA-A*02:12
# protocolSummary: IEDB peptide-MHC binding, purified MHC/competitive/fluorescence; filed as Kd, often an IC50 or EC50 that approximates it; bounds were set here for any values at or beyond the usual limits of such assays
# runConditions: source organism: Francisella tularensis subsp. holarctica OSU18

chain: SVYSWAIML
unitOfMeasure: nM
Kd: 2320

---

# assaySystem: HLA-A*01:01
# protocolSummary: IEDB peptide-MHC binding, purified MHC/competitive/radioactivity; filed as Kd, often an IC50 or EC50 that approximates it; bounds were set here for any values at or beyond the usual limits of such assays
# runConditions: source organism: Dengue virus 4 Philippines/H241/1956
pKd: −log10 of the molar value.

chain: LIGKEEYVDY
modifier: =
pKd: 5.10

chain: QTGIQRTVFF
modifier: ≤
pKd: 4.15

chain: ITDYQGKTV
modifier: ≤
pKd: 4.47

chain: TVIDLEPISY
modifier: =
pKd: 5.08

chain: LTSRETALM
modifier: =
pKd: 5.74

---

# assaySystem: HLA-B*27:05
# protocolSummary: IEDB peptide-MHC binding, purified MHC/direct/fluorescence; filed as Kd, often an IC50 or EC50 that approximates it; bounds were set here for any values at or beyond the usual limits of such assays
# runConditions: source organism: Orthohantavirus negraense

chain: MSRKLHRYI
Kd: ≥ 20 µM

---

# assaySystem: HLA-B*58:01
# protocolSummary: IEDB peptide-MHC binding, purified MHC/direct/fluorescence; filed as Kd, often an IC50 or EC50 that approximates it; bounds were set here for any values at or beyond the usual limits of such assays
# runConditions: source organism: Influenza A virus (A/chicken/Hubei/wk/1997(H5N1))
pKd: −log10 of the molar value.

chain: NPALRMKWM
pKd: ≤ 4.70

---

# assaySystem: HLA-B*54:01
# protocolSummary: IEDB peptide-MHC binding, purified MHC/competitive/radioactivity; filed as Kd, often an IC50 or EC50 that approximates it; bounds were set here for any values at or beyond the usual limits of such assays
# runConditions: source organism: Triticum aestivum
pKd: −log10 of the molar value.
readoutType: pKd

chain: PPYCTIAPVGI
modifier: ≤
reportedMeasurement: 4.56
//
chain: QPFPSQQPYL
modifier: =
reportedMeasurement: 4.97
//
chain: LPYPQPQLPY
modifier: =
reportedMeasurement: 5.07
//
chain: IPCRDVVL
modifier: ≤
reportedMeasurement: 4.06

---

# assaySystem: HLA-A*11:01
# protocolSummary: IEDB peptide-MHC binding, purified MHC/competitive/fluorescence; filed as Kd, often an IC50 or EC50 that approximates it; bounds were set here for any values at or beyond the usual limits of such assays
# runConditions: source organism: Salmonella enterica subsp. enterica serovar Typhi

chain: SVIDHIHYM
unitOfMeasure: nM
Kd: 71.7

---

# assaySystem: HLA-A*30:02
# protocolSummary: IEDB peptide-MHC binding, purified MHC/competitive/radioactivity; filed as Kd, often an IC50 or EC50 that approximates it; bounds were set here for any values at or beyond the usual limits of such assays
# runConditions: source organism: Mammarenavirus machupoense

chain: LSSSEPHCA
assaySystem: HLA-A*30:02
unitOfMeasure: nM
Kd: 2350

---

# assaySystem: HLA-B*07:02
# protocolSummary: IEDB peptide-MHC binding, purified MHC/direct/fluorescence; filed as Kd, often an IC50 or EC50 that approximates it; bounds were set here for any values at or beyond the usual limits of such assays
# runConditions: source organism: Marburg virus - Musoke, Kenya, 1980

chain: GEGSGARLL
Kd: ≥ 20 µM

---

# assaySystem: HLA-A*26:01
# protocolSummary: IEDB peptide-MHC binding, purified MHC/competitive/radioactivity; filed as Kd, often an IC50 or EC50 that approximates it; bounds were set here for any values at or beyond the usual limits of such assays
# runConditions: source organism: Mammarenavirus guanaritoense

chain: HTNFESFTV
Kd: ≥ 36.6 µM

chain: RVGLYGLLFY
Kd: ≥ 69.7 µM

chain: HLSRTVVYSY
Kd: 10.6 µM

chain: FLDGVNLVA
Kd: ≥ 77.9 µM

---

# assaySystem: HLA-A*31:01
# protocolSummary: IEDB peptide-MHC binding, purified MHC/competitive/fluorescence; filed as Kd, often an IC50 or EC50 that approximates it; bounds were set here for any values at or beyond the usual limits of such assays
# runConditions: source organism: Influenza A virus (A/Memphis/1/1978(H1N1))

chain: RLFKHGLKR
assaySystem: HLA-A*31:01
Kd (nM): 14.5

---

# assaySystem: HLA-A*24:03
# protocolSummary: IEDB peptide-MHC binding, purified MHC/direct/fluorescence; filed as Kd, often an IC50 or EC50 that approximates it; bounds were set here for any values at or beyond the usual limits of such assays
# runConditions: source organism: Influenza A virus (A/camel/Mongolia/1982(H1N1))
pKd: −log10 of the molar value.

chain: KFFPSSSYR
pKd: ≤ 4.70

---

# assaySystem: HLA-A*68:01
# protocolSummary: IEDB peptide-MHC binding, purified MHC/competitive/radioactivity; filed as Kd, often an IC50 or EC50 that approximates it; bounds were set here for any values at or beyond the usual limits of such assays
# runConditions: source organism: SARS coronavirus Tor2
pKd: −log10 of the molar value.
// class assignment uses pKd with these ranges: lower range: < 6; middle range: ≥ 6 and < 7; upper range: ≥ 7

chain: ILCFTIKRK
labelClass: lower range

chain: CMTSCCSCLK
labelClass: upper range

chain: VVYRGTTTYK
labelClass: upper range

chain: AMPNLYKMQR
labelClass: lower range

chain: QIGEYTFEK
labelClass: middle range

chain: SLQVCVQTVR
labelClass: lower range

chain: QTMLFTMLRK
labelClass: upper range

chain: LTSMKYFVK
labelClass: middle range

chain: GFNTLKPIFK
labelClass: lower range

chain: ATVAYFNMVY
labelClass: middle range

chain: FQGKFKKIVK
labelClass: lower range

---

# assaySystem: HLA-A*69:01
# protocolSummary: IEDB peptide-MHC binding, purified MHC/competitive/fluorescence; filed as Kd, often an IC50 or EC50 that approximates it; bounds were set here for any values at or beyond the usual limits of such assays
# runConditions: source organism: Brucella melitensis bv. 1 str. Rev.1

chain: FSDVSHWWQ
assaySystem: HLA-A*69:01
Kd: ≥ 20 µM
